Molecular target: human α3β4 nAChR (Homo sapiens, UniProt P30926+P32297)
Sequence (P32297 32-505 limits assumed): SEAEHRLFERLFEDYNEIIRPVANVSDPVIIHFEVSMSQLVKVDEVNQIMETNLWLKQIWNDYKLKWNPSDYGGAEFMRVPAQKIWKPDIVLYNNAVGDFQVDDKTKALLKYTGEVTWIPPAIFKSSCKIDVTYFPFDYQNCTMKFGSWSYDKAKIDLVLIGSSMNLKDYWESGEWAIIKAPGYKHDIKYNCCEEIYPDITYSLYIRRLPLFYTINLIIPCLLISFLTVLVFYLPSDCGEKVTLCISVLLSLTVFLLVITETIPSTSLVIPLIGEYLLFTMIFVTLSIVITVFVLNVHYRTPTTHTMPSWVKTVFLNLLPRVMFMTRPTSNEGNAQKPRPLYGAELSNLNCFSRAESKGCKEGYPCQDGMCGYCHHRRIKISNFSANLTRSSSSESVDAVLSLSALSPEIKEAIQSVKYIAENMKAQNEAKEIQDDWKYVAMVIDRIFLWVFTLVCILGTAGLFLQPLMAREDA
Sequence (P30926 22-498 limits assumed): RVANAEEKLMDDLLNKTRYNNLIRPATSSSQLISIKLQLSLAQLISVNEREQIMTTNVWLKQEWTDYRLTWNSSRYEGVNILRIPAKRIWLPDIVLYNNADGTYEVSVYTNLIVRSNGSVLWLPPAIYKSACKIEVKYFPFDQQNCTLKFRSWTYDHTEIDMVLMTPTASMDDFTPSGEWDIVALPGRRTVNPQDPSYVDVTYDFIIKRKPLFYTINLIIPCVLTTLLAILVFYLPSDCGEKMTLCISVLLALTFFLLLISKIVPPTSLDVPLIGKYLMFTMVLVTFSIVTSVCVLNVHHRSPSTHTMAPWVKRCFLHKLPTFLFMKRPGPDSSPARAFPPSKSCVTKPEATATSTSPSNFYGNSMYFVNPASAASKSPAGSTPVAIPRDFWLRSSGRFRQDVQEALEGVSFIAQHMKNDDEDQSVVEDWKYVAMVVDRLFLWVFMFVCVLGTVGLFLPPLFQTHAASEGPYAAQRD
Experiment: cell-based
pIC50: −log10 of the molar value. Where a SMILES comes first, the peptide text is derived from it. Bridges are numbered along the chain shown (N, C = ends).
readout: pIC50

compound="CC[C@H](C)[C@@H]1NC(=O)[C@H](Cc2c[nH]cn2)NC(=O)[C@H](CCC(N)=O)NC(=O)[C@H](CC(N)=O)NC(=O)[C@H](C)NC(=O)CNC(=O)[C@H](C)NC(=O)[C@@H]2CSSC[C@H](NC(=O)CN)C(=O)N[C@@H](CSSC[C@@H](C(N)=O)NC1=O)C(=O)N[C@@H](CO)C(=O)N[C@@H](Cc1c[nH]cn1)C(=O)N1CCC[C@H]1C(=O)N[C@@H](C)C(=O)N2 [GIC(N11A)] (H-GCCSHPACAGANQHIC-NH2; disulfide 2-8, 3-16)" experimental_value="< 5.00"
compound="CC[C@H](C)[C@@H]1NC(=O)[C@H](Cc2c[nH]cn2)NC(=O)[C@H](CCC(N)=O)NC(=O)[C@H](CC(N)=O)NC(=O)[C@H](CC(N)=O)NC(=O)CNC(=O)[C@H](C)NC(=O)[C@@H]2CSSC[C@H](NC(=O)CN)C(=O)N[C@@H](CSSC[C@@H](C(N)=O)NC1=O)C(=O)N[C@@H](CO)C(=O)N[C@@H](C)C(=O)N1CCC[C@H]1C(=O)N[C@@H](C)C(=O)N2 [GIC(H5A)] (H-GCCSAPACAGNNQHIC-NH2; disulfide 2-8, 3-16)" experimental_value="< 5.00"
compound="CC[C@H](C)[C@@H]1NC(=O)[C@H](Cc2c[nH]cn2)NC(=O)[C@H](CCC(N)=O)NC(=O)[C@H](CC(N)=O)NC(=O)[C@H](CC(N)=O)NC(=O)CNC(=O)[C@H](C)NC(=O)[C@@H]2CSSC[C@H](NC(=O)CN)C(=O)N[C@@H](CSSC[C@@H](C(N)=O)NC1=O)C(=O)N[C@@H](CO)C(=O)N[C@@H](Cc1c[nH]cn1)C(=O)N1CCC[C@H]1C(=O)NCC(=O)N2 [GIC(A7G)] (H-GCCSHPGCAGNNQHIC-NH2; disulfide 2-8, 3-16)" experimental_value="< 5.00"

---

List of pIC50 values.
Target: human α3β4 nAChR (Homo sapiens, UniProt P30926+P32297)
Assay: cell-based
pIC50: −log10 of the molar value. Where a SMILES comes first, the peptide text is derived from it. Bridges are numbered along the chain shown (N, C = ends).
readout: pIC50

molecule="CC[C@H](C)[C@@H]1NC(=O)[C@H](Cc2c[nH]cn2)NC(=O)[C@H](CCC(N)=O)NC(=O)[C@H](C)NC(=O)[C@H](CC(N)=O)NC(=O)CNC(=O)[C@H](C)NC(=O)[C@@H]2CSSC[C@H](NC(=O)CN)C(=O)N[C@@H](CSSC[C@@H](C(N)=O)NC1=O)C(=O)N[C@@H](CO)C(=O)N[C@@H](Cc1c[nH]cn1)C(=O)N1CCC[C@H]1C(=O)N[C@@H](C)C(=O)N2 [GIC(N12A)] (H-GCCSHPACAGNAQHIC-NH2; disulfide 2-8, 3-16)" experimental_value="< 5.00"
molecule="CC[C@H](C)[C@@H]1NC(=O)[C@H](Cc2c[nH]cn2)NC(=O)[C@H](CCC(N)=O)NC(=O)[C@H](CC(N)=O)NC(=O)[C@H](CC(N)=O)NC(=O)CNC(=O)[C@H](C)NC(=O)[C@@H]2CSSC[C@H](NC(=O)CN)C(=O)N[C@@H](CSSC[C@@H](C(N)=O)NC1=O)C(=O)N[C@@H](CO)C(=O)N[C@@H](Cc1c[nH]cn1)C(=O)N1CCC[C@H]1C(=O)N[C@@H](CC(C)C)C(=O)N2 [GIC(A7L)] (H-GCCSHPLCAGNNQHIC-NH2; disulfide 2-8, 3-16)" experimental_value="< 5.00"
